IC50: recorded values
- Study Target: Sodium channel protein type 5 subunit alpha (Homo sapiens, UniProt Q14524)
- Sequence (Q14524 whole entry): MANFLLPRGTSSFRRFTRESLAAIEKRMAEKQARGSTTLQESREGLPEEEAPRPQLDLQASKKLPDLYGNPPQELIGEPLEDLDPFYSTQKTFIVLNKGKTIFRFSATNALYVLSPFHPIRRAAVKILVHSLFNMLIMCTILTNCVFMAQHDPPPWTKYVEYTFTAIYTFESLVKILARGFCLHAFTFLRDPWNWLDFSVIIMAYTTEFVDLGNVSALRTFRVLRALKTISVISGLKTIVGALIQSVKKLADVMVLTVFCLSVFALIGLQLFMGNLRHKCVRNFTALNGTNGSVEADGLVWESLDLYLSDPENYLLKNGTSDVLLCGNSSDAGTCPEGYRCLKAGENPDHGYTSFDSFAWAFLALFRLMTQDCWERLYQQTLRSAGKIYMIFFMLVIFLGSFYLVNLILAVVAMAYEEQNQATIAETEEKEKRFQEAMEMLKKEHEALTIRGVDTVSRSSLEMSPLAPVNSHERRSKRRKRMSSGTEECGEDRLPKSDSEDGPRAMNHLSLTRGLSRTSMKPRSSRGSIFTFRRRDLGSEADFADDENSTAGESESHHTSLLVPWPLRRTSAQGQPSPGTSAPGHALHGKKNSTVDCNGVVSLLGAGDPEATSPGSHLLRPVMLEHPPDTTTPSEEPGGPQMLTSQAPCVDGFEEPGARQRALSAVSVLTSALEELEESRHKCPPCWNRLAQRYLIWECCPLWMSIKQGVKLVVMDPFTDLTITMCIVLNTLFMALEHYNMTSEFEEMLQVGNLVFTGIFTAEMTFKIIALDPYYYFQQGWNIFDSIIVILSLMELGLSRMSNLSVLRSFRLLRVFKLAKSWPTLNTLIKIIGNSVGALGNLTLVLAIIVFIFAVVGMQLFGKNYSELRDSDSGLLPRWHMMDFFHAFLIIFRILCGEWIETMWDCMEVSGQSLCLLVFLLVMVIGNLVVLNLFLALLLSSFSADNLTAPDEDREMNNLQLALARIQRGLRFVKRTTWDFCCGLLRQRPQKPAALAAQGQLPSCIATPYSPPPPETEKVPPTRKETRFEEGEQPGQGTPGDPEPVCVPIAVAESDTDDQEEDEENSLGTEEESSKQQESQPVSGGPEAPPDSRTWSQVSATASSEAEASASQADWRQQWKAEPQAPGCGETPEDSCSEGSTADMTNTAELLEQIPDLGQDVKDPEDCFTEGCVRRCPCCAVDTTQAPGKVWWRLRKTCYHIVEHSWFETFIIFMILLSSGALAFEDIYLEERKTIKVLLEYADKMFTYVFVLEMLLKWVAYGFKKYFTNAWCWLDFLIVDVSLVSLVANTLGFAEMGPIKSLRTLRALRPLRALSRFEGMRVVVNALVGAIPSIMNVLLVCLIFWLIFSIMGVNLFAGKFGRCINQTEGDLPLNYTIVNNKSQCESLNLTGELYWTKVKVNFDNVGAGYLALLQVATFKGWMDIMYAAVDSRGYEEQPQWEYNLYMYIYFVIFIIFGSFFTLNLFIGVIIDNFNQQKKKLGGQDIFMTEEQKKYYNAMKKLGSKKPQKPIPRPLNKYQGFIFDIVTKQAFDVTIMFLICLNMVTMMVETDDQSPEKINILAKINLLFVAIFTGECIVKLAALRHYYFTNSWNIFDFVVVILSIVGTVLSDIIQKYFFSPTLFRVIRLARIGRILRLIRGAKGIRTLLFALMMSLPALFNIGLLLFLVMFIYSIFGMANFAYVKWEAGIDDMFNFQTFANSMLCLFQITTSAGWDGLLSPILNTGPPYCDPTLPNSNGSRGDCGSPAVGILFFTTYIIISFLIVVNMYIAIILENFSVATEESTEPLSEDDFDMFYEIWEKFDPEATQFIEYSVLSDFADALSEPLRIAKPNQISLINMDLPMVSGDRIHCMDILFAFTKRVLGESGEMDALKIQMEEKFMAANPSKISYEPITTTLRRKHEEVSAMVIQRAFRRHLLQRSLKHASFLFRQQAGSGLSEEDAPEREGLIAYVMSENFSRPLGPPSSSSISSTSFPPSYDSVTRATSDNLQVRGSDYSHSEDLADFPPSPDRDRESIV
- Experiment Description: Inhibition of human NaV1.5 expressed in […] cells at holding potential of -125 mV with test potentials to -10 mV by whole cell voltage clamp method
Dear colleague, please return just the value in µM, with no unit written.

Chemical Structure	Study Target	IC50 [µM]
N#Cc1cc(C(F)(F)F)ccc1N1CCOc2cc(S(=O)(=O)Nc3nccs3)c(Cl)cc21	Sodium channel protein type 5 subunit alpha (Homo sapiens, UniProt Q14524)	0.61

Continue with the next compound.
q: Dear colleague, I am looking for the recorded IC50 of the following compound: `O=S(=O)(Nc1ccncn1)c1ccc2c(c1)OCCN2c1ccc(C(F)(F)F)cc1C1=CCNCC1`
a: 1.5

Just for reference, ChEMBL document CHEMBL4052683 is where these values come from.
